Procedure Details: MTS cytotoxicity assay, Caco-2 cells
Protocol Conditions: human
CC50 at 3 days values by entry

Compound	CC50 at 3 days
COCCCC/C(=N\OCCN)c1ccc(C(F)(F)F)cc1 [Fluvoxamine (maleate)]	> 100 µM

Problem: May I ask what CC50 at 3 days has been recorded for CC(C)OC(=O)C(C)(C)Oc1ccc(C(=O)c2ccc(Cl)cc2)cc1 [Fenofibrate] ?
Result: > 100 µM

Problem: Repeat with Cc1cccc(Nc2ccccc2C(=O)O)c1C
Result: > 100 µM

Problem: Next up: Cc1ccc(-c2cc(C(F)(F)F)nn2-c2ccc(S(N)(=O)=O)cc2)cc1
Result: 59.1 µM
